Test Summary: Phase 1 Stage 1 clinical pharmacokinetics of SC ZA co-administered with rHuPH20
Format: in vivo, human
Experimental Conditions: human, serum, sc, […], AUC (0-12 h), Subj 16; ZA […] SC; inf 0.553 hr; PH20 23904 U
Description: A pharmacokinetic study of zoledronic acid (ZA) co-administered with rHuPH20 in human subjects was conducted. […] Serum concentration of ZA was determined using a qualified LC-MS-MS assay after derivatization with diazomethane (Zhu, L S et al. (2006) Rapid Commun. […] The assay range was from 2.0 to 400 ng/mL with a lower limit of quantitation (LLOQ) at 2.0 ng/mL. […] Summary statistics (mean, standard deviation, and median) were calculated using JMP or Microsoft Excel.
Quantity Kind: AUC(0-t) (ng·h/mL)
Entry rule: numbers only, all in ng·h/mL.

Entry under review: O=P(O)(O)C(O)(Cn1ccnc1)P(=O)(O)O [ZA] . Reported AUC(0-t)? 60.8
